- Tested on: TNF-α
- assay: Rat assay: LPS-challenged rats, serum TNF-α by ELISA
- Assay type: in vivo
- experimental.conditions: Rattus norvegicus, po, Table 9, dose 5 mg/kg; read-out: Rat LPS Assay % Inhibition
Where a name gives a salt, the structure may show the parent alone.
Entries and their inhibition in vivo at 5 mg/kg
metric: inhibition in vivo at 5 mg/kg

In [3]: df
Out[3]:
                                   compound                         metric  result
0  C[C@H](O)CNc1cc(-c2c[nH]nc2-c2ccc(F)cc2)ccn1 [Example A-370]  inhibition in vivo at 5 mg/kg     46%
1  CCN(CC)CCCC(C)Nc1nccc(-c2c[nH]nc2-c2ccc(F)cc2)n1 (stereo not drawn) [Example A-366]  inhibition in vivo at 5 mg/kg     45%
2  CCN(CC)CCCC(C)Nc1cc(-c2c[nH]nc2-c2ccc(F)cc2)ccn1 (stereo not drawn) [Example A-377]  inhibition in vivo at 5 mg/kg     67%
3  C[C@@H](O)CNc1cc(-c2c[nH]nc2-c2ccc(F)cc2)ccn1 [Example A-368]  inhibition in vivo at 5 mg/kg     41%
4  NC1CCN(c2[nH]nc(-c3ccc(F)cc3)c2-c2ccncc2)CC1 [Example A-365, trihydrochloride]  inhibition in vivo at 5 mg/kg     50%
5  CN(C)C1CCN(c2[nH]nc(-c3ccc(F)cc3)c2-c2ccncc2)CC1 [Example A-360, trihydrochloride]  inhibition in vivo at 5 mg/kg     14%
6  CCN(CC)CCCC(C)Nc1cc(-c2c[nH]nc2-c2ccc(Cl)cc2)ccn1 (stereo not drawn) [Example A-369]  inhibition in vivo at 5 mg/kg     52%
7  CCN(CC)CCNc1cc(-c2c[nH]nc2-c2ccc(F)cc2)ccn1 [Example A-374]  inhibition in vivo at 5 mg/kg      0%
8  CCN(CC)C1CCN(c2n[nH]c(-c3ccc(F)cc3)c2-c2ccncc2)CC1 [Example A-388, trihydrochloride]  inhibition in vivo at 5 mg/kg     67%

====

The entries below are paired with their reported IC50.
- target.desc: human p38 kinase alpha (Homo sapiens)
- Construct: The coding region of the human p38a cDNA was obtained by PCR-amplification from RNA isolated from the human monocyte cell line THP.1; GST (N); made in house; host or cells: E. coli DH10B
- Sequence (Q16539 whole entry): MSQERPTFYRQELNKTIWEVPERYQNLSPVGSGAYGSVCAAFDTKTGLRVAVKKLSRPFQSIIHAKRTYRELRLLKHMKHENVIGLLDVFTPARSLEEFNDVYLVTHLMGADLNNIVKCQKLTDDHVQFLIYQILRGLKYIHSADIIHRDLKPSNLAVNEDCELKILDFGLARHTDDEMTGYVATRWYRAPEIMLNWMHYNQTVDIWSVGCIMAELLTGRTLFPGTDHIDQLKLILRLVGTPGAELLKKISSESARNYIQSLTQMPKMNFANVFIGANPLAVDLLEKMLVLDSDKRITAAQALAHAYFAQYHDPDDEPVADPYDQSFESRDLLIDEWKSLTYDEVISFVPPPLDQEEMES
- assay: p38 kinase in vitro assay, phosphorylation of biotinylated PHAS-I with gamma 32P-ATP
- Type: biochemical
- experimental.conditions: read-out: P38 alpha kinase IC50
metric: IC50 (nM)

>>> df
                                   compound  measured_number
0  O=C(O)CCc1[nH]nc(-c2ccc(F)cc2)c1-c1ccncc1             6000
1  C[C@@H](NS(=O)(=O)c1ccc(Cl)c(Cl)c1)c1[nH]nc(-c2ccc(F)cc2)c1-c1ccncc1               84
2  Cc1cccc(Cl)c1S(=O)(=O)NCc1[nH]nc(-c2ccc(F)cc2)c1-c1ccncc1               39
3  Cc1cccc(C(=O)N[C@H](C)c2[nH]nc(-c3ccc(F)cc3)c2-c2ccncc2)c1              420
4  CN1CCCC(c2[nH]nc(-c3ccc(F)cc3)c2-c2ccncc2)C1 (centres unmarked)               54
5  Cc1ccc(C)c(S(=O)(=O)N[C@H](C)c2[nH]nc(-c3ccc(F)cc3)c2-c2ccncc2)c1               31
6  Cc1ccc(S(C)(=O)=O)cc1S(=O)(=O)N[C@H](C)c1[nH]nc(-c2ccc(F)cc2)c1-c1ccncc1              430
7    OCCCCc1[nH]nc(-c2ccc(F)cc2)c1-c1ccncc1               86
